pIC50: −log10 of the molar value.
Ok so here's the combined literature set: pIC50 for Tyrosine-protein kinase JAK3 (Homo sapiens, UniProt P52333).

Here are 5 compounds together with their reported answers.
>>> recordedvalue("Cn1c(=O)n([C@H]2CC[C@H](O)CC2)c2nc(-n3cnc4ccc(Cl)cc43)nc(N3CCC(F)(F)CC3)c21")
"> 7.00"
>>> recordedvalue("CNC(=O)c1n[nH]c2cc(-c3cc(F)c(O)cc3CC(F)(F)F)nc(NCc3nccnc3N(C)S(=O)(=O)c3ccccc3)c12")
6.53
>>> recordedvalue("Cc1cnc(Nc2ccc(N3CCOCC3)cc2)nc1-c1ccc(C(=O)NCC#N)cc1")
"> 7.00"
>>> recordedvalue("Cc1cnc2nc1NCCCCCNC(=O)c1ccc(cc1C(=O)Nc1ccccc1)-c1cnc(F)c(c1)N2")
"5.00 to 6.00"
>>> recordedvalue("NC(=O)c1cnc(Nc2ccc3c(c2)NC[C@H](O)CO3)nc1NC1CC1F (stereo partly drawn)")
"7.00 to 8.00"

Provide reported pIC50 for each item, in the same order as listed.
1. CC1(C)[C@H](Nc2c(C(N)=O)cnn3cc(-c4ccc(C(=O)NC5CC5)cc4)cc23)CC[C@]1(C)N
2. CN(c1ncnc2[nH]ccc12)[C@H]1C[C@@H]2CN(C(=O)C(O)C(F)(F)F)C[C@@H]2C1 (stereo partly drawn)
3. CCC(=O)c1cnc(Nc2cnc(O[C@H]3CN[C@@H](C(F)F)C3)cn2)cc1Nc1cccc(-c2ncn(C)n2)c1OC
4. C=CC(=O)N1CCC[C@@H](Nc2n[nH]c3nccc(Oc4ccc(C(=O)Nc5cc(C)n(C)n5)cc4)c23)C1

### Response
1. 8.80
2. 6.96
3. ≤ 6.30
4. 6.00 to 7.00
